Could you please report measured binding signal for the items listed next?
Molecular target: T1, RBFOX1 RRM (Homo sapiens, UniProt Q9NWB1 109-208)
T1 sequence: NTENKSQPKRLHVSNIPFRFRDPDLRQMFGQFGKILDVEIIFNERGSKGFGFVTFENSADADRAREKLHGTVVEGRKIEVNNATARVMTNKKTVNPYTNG
Assay: EMSA; HiTS-Eq, 1 nM pool, 10 min; buffer printed only for the single-RNA assays: 10 mM Tris pH 7.5, 150 mM NaCl, 3.4 mM EDTA, 0.001% NP-40, 30 C
Settings: tags: His6 N-terminal (pET28a); label: 5' 32P
In all, about 16,000 sequences were measured (“ka relative to ugcaugu”: median about 0.0091, highest 2% from about 0.032 on). Many of the other results were omitted from the sample, so the highest values are more common in it than they were.

Hello, please tell me recorded binding signal for this one: CUUUGGG (DNA:RNA) RNA: GGGAGACCGGAAUUCAGAUUGUCCCUUUGGGUUAAAUCCCGUCGUAGCCACCA DNA 1: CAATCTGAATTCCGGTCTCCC DNA 2: TGGTGGCTACGACGGGATT 0.00295 KA relative to UGCAUGU

Hello, please tell me recorded binding signal for this one: GAUAUCG (DNA:RNA) RNA: GGGAGACCGGAAUUCAGAUUGUCCGAUAUCGUUAAAUCCCGUCGUAGCCACCA DNA 1: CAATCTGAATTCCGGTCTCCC DNA 2: TGGTGGCTACGACGGGATT 0.0155 KA relative to UGCAUGU

This collection of values is drawn from paper PMC9911399.
